Assay: Caco-2 permeability / efflux
Type: in vitro ADME
Details: human, Caco-2, pH 7.4; Papp (B-to-A) / Papp (A-to-B)
test.readout: efflux ratio at 120 min, 5 µM
Keep it simple and answer with nothing but the number.

Kindly note the recorded efflux ratio at 120 min, 5 µM for `Cc1cc(F)cc([C@@H](O)C(=O)Nc2ccc(-c3cn(C)c4nc(C)nc(N)c34)c(C)c2)c1` , which is 2.5

Kindly note the recorded efflux ratio at 120 min, 5 µM for `Cc1nc(N)c2c(-c3ccc(NC(=O)[C@H](O)c4cc(F)cc(C(F)(F)F)c4)cc3C)cn(C)c2n1` , which is 2

Kindly note the recorded efflux ratio at 120 min, 5 µM for `Cc1nc(N)c2c(-c3ccc(NC(=O)[C@H](O)c4cccc(F)c4)c(F)c3F)cn(C)c2n1` , which is 1.7

Kindly note the recorded efflux ratio at 120 min, 5 µM for `Cc1nc(N)c2c(-c3ccc(NC(=O)[C@H](O)c4cccc(Cl)c4)cc3C)cn(C)c2n1` , which is 1.9

Kindly note the recorded efflux ratio at 120 min, 5 µM for `Cc1nc(N)c2c(-c3cc(F)c(NC(=O)[C@H](O)c4cccc(F)c4)cc3C)cn(C)c2n1` , which is 1.5

Kindly note the recorded efflux ratio at 120 min, 5 µM for `Cc1nc(N)c2c(-c3ccc(NC(=O)[C@H](O)c4cccc(F)c4)cc3C)cn(C)c2n1` , which is 5.2

Kindly note the recorded efflux ratio at 120 min, 5 µM for `Cc1nc(N)c2c(-c3ccc(NC(=O)[C@H](O)c4cccc(C(F)(F)F)c4)cc3C)cn(C)c2n1` , which is 2.2
